Tested on: SK-MEL-28
test_name: NCI tumour cell line growth inhibition, 48 h
Activity calls are given as the source filed them. Cut-off read from the data, not from the text of the source: active = GI50 up to about 1.1 µM and inactive = higher.
Reported GI50 values are given for each entry in this list.

// solved cases for GI50 follow
INSERT INTO measurements (compound, subject_of_test, data_value) VALUES
  ('CSS(C)(=O)=O', 'SK-MEL-28', '21.6 µM (inactive)'),
  ('O=C1Cc2c([nH]c3cc(Br)ccc23)-c2ccccc2N1', 'SK-MEL-28', '> 100 µM (inactive)'),
  ('OC1(c2ccccc2)CCCCCCCCC(O)(c2ccccc2)CCCCCCCC1 (stereo unspecified)', 'SK-MEL-28', '> 100 µM (inactive)'),
  ('CCC1(O)CC(O)c2c(O)c3c(c(O)c2C1C(=O)OC)C(=O)c1cccc(O)c1C3=O (stereo unspecified)', 'SK-MEL-28', '11.4 µM (inactive)'),
  ('O=C(O)c1nc(-c2ccc(Cl)c(Cl)c2)nc2ccc(Cl)cc12', 'SK-MEL-28', '> 100 µM (inactive)');

Please turn your attention to the following entry.
Exercise: Suppose we examine the compound O=C1Oc2ccccc2C(=O)/C1=C/NC(=S)Nc1ccccc1 ; what GI50 value has been reported?
Key: 44.2 µM (inactive)
